A collection of compounds and their measured log10(Ki)
Molecular target: delta-opioid receptor (DOR) (Rattus norvegicus)
Construct: Rat cortices were homogenized using 50 mM Tris, pH 7.4, 10 mM MgCl2-6H2O, 200 µM PMSF; from tissue; host or cells: rat cortex membranes
Sequence (P33533 whole entry): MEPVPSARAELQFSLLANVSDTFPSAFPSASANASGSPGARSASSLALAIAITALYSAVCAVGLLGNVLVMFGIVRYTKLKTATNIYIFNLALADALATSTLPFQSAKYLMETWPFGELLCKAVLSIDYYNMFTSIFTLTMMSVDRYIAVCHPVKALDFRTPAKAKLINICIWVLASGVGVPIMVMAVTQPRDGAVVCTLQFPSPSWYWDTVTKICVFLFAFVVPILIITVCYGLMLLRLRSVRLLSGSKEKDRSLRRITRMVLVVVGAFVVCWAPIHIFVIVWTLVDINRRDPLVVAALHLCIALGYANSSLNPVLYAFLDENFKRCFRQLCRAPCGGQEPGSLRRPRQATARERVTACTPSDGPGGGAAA
Assay: DOR radioligand competition binding assay ([3H]-DPDPE)
Details: Delta screening results, first Ki column; unit not printed (apparently M); read-out: Ki (first column)
Response schema: value (number) is log10 of Ki in units of nM.

Known log10(Ki) results, listed for orientation:
Value lookup for log10(Ki); key = `Cc1cc(O)cc(C)c1C[C@H]1CN([C@@H](CC(C)C)CN2C(=N)NC[C@@H]2Cc2ccccc2)C(=N)N1` 3.29

One more compound: `Cc1cc(O)cc(C)c1C[C@H]1CN([C@@H](Cc2ccc(O)cc2)CN2C(=N)NC[C@@H]2C)C(=N)N1` 3.18

One more compound: `CC(C)C[C@H]1CN([C@@H](CC(C)C)CN2C(=N)NC[C@@H]2Cc2ccccc2)C(=N)N1` 4.42

One more compound: `Cc1cc(O)cc(C)c1C[C@H]1CNC(=N)N1C[C@H](Cc1c(C)cc(O)cc1C)N1C[C@H](Cc2ccc(O)cc2)NC1=N` 3.18

One more compound: `Cc1cc(O)cc(C)c1C[C@H]1CN([C@@H](Cc2ccccc2)CN2C(=N)NC[C@@H]2Cc2c(C)cc(O)cc2C)C(=N)N1` 2.76

More entries:
Value lookup for log10(Ki); key = `CC(C)C[C@H]1CN([C@@H](Cc2ccc(O)cc2)CN2C(=N)NC[C@@H]2Cc2ccccc2)C(=N)N1` 4.26

One more compound: `CC(C)C[C@H]1CN([C@@H](Cc2ccc(O)cc2)CN2C(=N)NC[C@@H]2C)C(=N)N1` 3.62

* * *

Target: mu-opioid receptor (MOR) (Rattus norvegicus, UniProt P33535)
Construct: Rat cortices were homogenized using 50 mM Tris, pH 7.4, and centrifuged at 16,500 rpm for 10 min; from tissue; host or cells: rat cortex membranes
Sequence (P33535 whole entry): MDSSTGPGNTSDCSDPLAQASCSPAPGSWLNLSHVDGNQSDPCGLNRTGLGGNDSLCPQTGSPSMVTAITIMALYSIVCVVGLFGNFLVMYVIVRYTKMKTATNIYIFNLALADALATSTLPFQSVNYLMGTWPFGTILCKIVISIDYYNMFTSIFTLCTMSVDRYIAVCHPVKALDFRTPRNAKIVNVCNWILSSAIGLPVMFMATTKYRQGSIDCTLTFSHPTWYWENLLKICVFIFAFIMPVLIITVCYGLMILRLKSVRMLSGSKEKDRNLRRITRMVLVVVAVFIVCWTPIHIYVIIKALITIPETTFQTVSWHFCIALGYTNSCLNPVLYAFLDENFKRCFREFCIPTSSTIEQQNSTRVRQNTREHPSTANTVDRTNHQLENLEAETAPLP
Experiment: MOR radioligand competition binding assay ([3H]-DAMGO)
Settings: Mu screening results, mean of two experiments; read-out: Ki
Property measured: Ki (nM)
The response must be a number in nM with no trailing unit.

Known Ki results, listed for orientation:
Value lookup for Ki; key = `C[C@H]1CNC(=N)N1C[C@H](Cc1ccc(O)cc1)N1C[C@H](Cc2ccccc2)NC1=N` 669

One more molecule: `N=C1NC[C@H](Cc2ccc(O)cc2)N1C[C@H](Cc1ccc(O)cc1)N1C[C@H](Cc2ccc(O)cc2)NC1=N` 256

One more molecule: `Cc1cc(O)cc(C)c1C[C@@H](CN1C(=N)NC[C@@H]1C)N1C[C@H](CC(C)C)NC1=N` 15

One more molecule: `Cc1cc(O)cc(C)c1C[C@H]1CNC(=N)N1C[C@H](Cc1ccccc1)N1C[C@H](CC(C)C)NC1=N` 144

One more molecule: `Cc1cc(O)cc(C)c1C[C@H]1CN([C@@H](Cc2ccc(O)cc2)CN2C(=N)NC[C@@H]2Cc2ccccc2)C(=N)N1` 13

One more molecule: `CC(C)C[C@H]1CN([C@@H](Cc2ccc(O)cc2)CN2C(=N)NC[C@@H]2Cc2ccccc2)C(=N)N1` 2020

Moving on to another molecule below.
Value lookup for Ki; key = `Cc1cc(O)cc(C)c1C[C@@H](CN1C(=N)NC[C@@H]1C)N1C[C@H](Cc2ccc(O)cc2)NC1=N` 8
